# target.under.test: human ether-à-go-go-related gene (hERG) potassium channel (human, UniProt Q12809);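 note: peak tail current of the secondary pulse compared with the same well before compound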
# Sequence (Q12809 whole entry, looked up): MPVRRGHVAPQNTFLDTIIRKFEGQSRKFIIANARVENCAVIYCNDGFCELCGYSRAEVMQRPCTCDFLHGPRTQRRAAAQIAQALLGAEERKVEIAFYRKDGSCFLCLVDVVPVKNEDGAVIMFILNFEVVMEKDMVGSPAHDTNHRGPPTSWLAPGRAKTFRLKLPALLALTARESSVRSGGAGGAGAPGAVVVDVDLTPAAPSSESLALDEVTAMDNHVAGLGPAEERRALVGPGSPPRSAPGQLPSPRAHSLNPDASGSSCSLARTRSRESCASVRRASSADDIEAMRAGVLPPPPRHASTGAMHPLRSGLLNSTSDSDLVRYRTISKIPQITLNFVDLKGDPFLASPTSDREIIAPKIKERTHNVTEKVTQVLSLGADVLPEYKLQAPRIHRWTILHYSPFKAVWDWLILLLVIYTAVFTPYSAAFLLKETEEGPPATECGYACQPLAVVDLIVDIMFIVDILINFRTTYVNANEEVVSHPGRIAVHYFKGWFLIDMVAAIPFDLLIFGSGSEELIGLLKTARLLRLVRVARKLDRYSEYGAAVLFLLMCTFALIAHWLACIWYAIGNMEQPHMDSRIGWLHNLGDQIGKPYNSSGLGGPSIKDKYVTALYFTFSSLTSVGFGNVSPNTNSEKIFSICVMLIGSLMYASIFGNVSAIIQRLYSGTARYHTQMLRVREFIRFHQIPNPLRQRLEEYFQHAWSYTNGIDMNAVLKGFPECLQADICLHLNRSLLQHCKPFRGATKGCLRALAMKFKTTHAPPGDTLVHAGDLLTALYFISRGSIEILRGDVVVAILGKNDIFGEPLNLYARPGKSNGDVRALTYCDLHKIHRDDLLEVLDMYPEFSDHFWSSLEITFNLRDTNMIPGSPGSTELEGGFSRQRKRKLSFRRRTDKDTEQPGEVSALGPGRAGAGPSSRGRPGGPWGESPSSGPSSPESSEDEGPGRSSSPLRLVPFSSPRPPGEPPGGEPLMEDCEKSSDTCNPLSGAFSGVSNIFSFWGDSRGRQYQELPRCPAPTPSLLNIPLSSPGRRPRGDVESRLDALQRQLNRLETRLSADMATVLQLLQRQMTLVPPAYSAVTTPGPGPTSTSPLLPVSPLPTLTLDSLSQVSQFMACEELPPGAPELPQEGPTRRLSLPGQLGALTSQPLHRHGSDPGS
# test.description: primary screen, population patch clamp on CHO cells stably expressing hERG; higher = less effect of the substance
# Description: Briefly, Chinese hamster ovary (CHO) cells stably expressing the hERG channel were dislodged from tissue culture flasks and dispensed into PPC plates. […] During the recording, background leak currents were estimated by a 100 ms step to -80 mV from an initial holding potential of -70 mV and subtracted from the subsequent current measurement. The campaign was conducted in two phases using slight differences in recording protocol. […]
Among all 310,000 compounds or so, about 14,000 (4.5%) showed an effect of 50% or more. Effects have a minus sign here. The full list was thinned out, with strong results kept by preference.
metric.name: hERG current change (%, negative = inhibition) at 10uM (%)
Kindly answer with a numeric value in %, unit omitted.

Value lookup for hERG current change (%, negative = inhibition) at 10uM; key = "Cc1cccc(C)c1NC(=O)CN(c1ccccn1)S(=O)(=O)c1ccc(F)cc1"
19.1

What do you have for "Cc1cc(C(=O)COc2cccc([N+](=O)[O-])c2)c(C)n1C1CC1" ?
-35.7

What do you have for "CS(=O)(=O)Oc1ccc(/C=C2\C(=N)N3N=C(CC(=O)N4CCOCC4)SC3=NC2=O)cc1Cl" ?
-2.27

What do you have for "O=C(COc1cccc2cccnc12)NNC(=S)Nc1ccccc1" ?
-25.8

What do you have for "Cc1cc(=O)n(C)c(=O)n1CCCNc1ccccc1.O=C(O)C(=O)O" ?
-4.01

What do you have for "Cc1cc(=O)n(C)c(=O)n1CCCCCCOc1cccc([N+](=O)[O-])c1" ?
-69.3

What do you have for "O=C(CN1CCN(C(=O)c2ccco2)CC1)Nc1cccc(S(=O)(=O)N2CCCC2)c1" ?
-16.2

What do you have for "Cc1cc(=O)n(C)c(=O)n1CCCCCOc1cccc([N+](=O)[O-])c1" ?
-57.9

What do you have for "O=C(NCCSc1ccccc1)c1ccc(Br)cc1" ?
13.5

###

# target.under.test: human ether-à-go-go-related gene (hERG) potassium channel (human);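 note: peak tail current of the secondary pulse compared with the same well before compound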
# test.description: primary screen, population patch clamp on CHO cells stably expressing hERG; higher = less effect of the substance
Hit rate of the full screen: of about 310,000 compounds, about 14,000 (4.5%) showed an effect of 50% or more. Effects have a minus sign here. The list comes from a sample in which strong results are over-represented; it also holds close analogues and randomly drawn compounds.
Could you please report measured hERG current change (%, negative = inhibition) at 10uM for the items listed next?
Kindly answer with a numeric value in %, unit omitted.

Value lookup for hERG current change (%, negative = inhibition) at 10uM; key = "Cn1ccs/c1=N\S(=O)(=O)c1ccc(C(C)(C)C)cc1"
-11.5

What do you have for "CC(C)OC(=O)c1cc2c(ccn2-c2ccc(F)cc2)n1CC(=O)N1CCN(C(=O)c2ccco2)CC1" ?
-69.2

What do you have for "CCOC(=O)/C(C#N)=C/N1CCOCC1" ?
-1.97

What do you have for "COc1ccccc1Nc1nc(N)nc(CN2CCC(C)CC2)n1" ?
-67.5

What do you have for "C#CCn1cnc2c(cnn2-c2ccc(C)c(C)c2)c1=O" ?
3.21

What do you have for "O=C(CN1CCN(c2ccccn2)CC1)Nc1ccc(F)cc1.O=C(O)C(=O)O" ?
-47.2

What do you have for C[N+]1(CC(O)COc2ccccc2)CCN(C(=O)c2ccc([N+](=O)[O-])cc2)CC1.[I-] (centres unmarked) ?
-9.95

What do you have for "CC(=O)N1CCN(c2ccc([N+](=O)[O-])c(-n3nc(C)cc3C)c2)CC1" ?
-51.9

What do you have for "CC(C)COc1ccc(C(=O)OCC(=O)N(C)CC(=O)Nc2ccc(F)cc2)cc1" ?
6.57

What do you have for CCOC(=O)C(NC(=O)CC)(Nc1ccccc1)C(F)(F)F (centres unmarked) ?
21.9

What do you have for CC1CN(C2=NC(=O)/C(=C/c3ccncc3)S2)CC(C)O1 (centres unmarked) ?
-14.5

What do you have for "COc1ccc2c(C)cc(SCC(=O)Nc3cccnc3Cl)nc2c1" ?
10.3

What do you have for "COc1cc(C)c(CNc2cccc(C)c2)cc1C" ?
2.74

What do you have for "CCOC(=O)c1cc2c(ccn2-c2ccc(F)cc2)n1CC(=O)N1CCN(C(=O)c2ccco2)CC1" ?
-26.1

What do you have for CCOC(=O)C1C(=O)NC(N2CCN(c3ccccc3)CC2)=NC1c1ccco1 (centres unmarked) ?
-5.81

What do you have for "O=C(NNc1nc(-c2ccccc2)c2cc(Br)ccc2n1)c1ccc(S(=O)(=O)N2CCCCC2)cc1" ?
8.26

What do you have for "COc1ccc(C(=O)N2CCN(c3ccc([N+](=O)[O-])c(-n4nc(C)cc4C)c3)CC2)cc1" ?
-78.2

What do you have for "COc1ccccc1Nc1nc(N)nc(CSC(=S)N2CCC(C)CC2)n1" ?
-13.7

What do you have for "N#Cc1ccccc1NC(=O)CN1CCN(c2ccccn2)CC1" ?
-29.8

What do you have for "COc1ccc2c(CC(=O)OCC(=O)c3ccc(F)cc3)coc2c1" ?
6.5

What do you have for CC1(C)Cc2c(cnn2-c2ccc(F)cc2)C(NC(=O)c2cnccn2)C1 (centres unmarked) ?
-37.6

What do you have for "Cc1ccccc1C(=O)NCCCNC(=O)c1cnccn1" ?
13.5

What do you have for "Cc1cc(C)c(S(=O)(=O)N2CCN(c3ccc([N+](=O)[O-])c(-n4nc(C)cc4C)c3)CC2)c(C)c1" ?
-7.91

What do you have for "Cc1ccc([C@@H]2[C@@H]3C(=O)N(C)C(=O)[C@@H]3[C@]3(Cc4ccccc4)C(=O)N(CCO)CC(=O)N23)o1" ?
0.221

What do you have for CC(=O)c1ccc(C(=O)NC2CC(C)(C)Cc3c2cnn3-c2ccccc2)cc1 (centres unmarked) ?
-21.8

What do you have for "COc1ccc2nc(NC(=O)C3CCN(S(=O)(=O)c4cccs4)CC3)sc2c1" ?
-13.6

What do you have for CC1(C)Cc2c(cnn2-c2ccc(F)cc2)C(NC(=O)c2ccoc2)C1 (centres unmarked) ?
-89.1

What do you have for "COc1ccc(-c2cc(C(F)(F)F)nc(-n3cc(Cl)cn3)n2)cc1" ?
-18.5

What do you have for CC1(C)Cc2c(cnn2-c2ccccc2)C(NC(=O)c2ccoc2)C1 (centres unmarked) ?
-93.4

What do you have for "Cc1cc(C)n(-c2cc(N3CCN(C(=O)c4ccc(C(C)(C)C)cc4)CC3)ccc2[N+](=O)[O-])n1" ?
-34.4

What do you have for "CCc1nc(Nc2ccccc2OC)c2oc3ccccc3c2n1.Cl" ?
12.5

What do you have for "CN(C)C(=O)c1cc(C(=O)c2ccc(F)cc2F)c[nH]1" ?
14.6

What do you have for "CCOC(=O)c1noc(C)c1C(=O)Nc1nc(C)cc(C)n1" ?
11.5

What do you have for "COC(=O)c1cc2c(ccn2-c2ccc(F)cc2)n1CC(=O)OC(C)C" ?
27.3

What do you have for "Cc1cc(C)n(-c2cc(N3CCN(S(=O)(=O)c4ccc(Cl)cc4)CC3)ccc2[N+](=O)[O-])n1" ?
-32.8

What do you have for "COc1ccc(N2CCN(C(=O)c3ccc(-n4nc(C)cc4C)cc3)CC2)cc1" ?
-19.4

What do you have for "Cc1cc(C)n(-c2cc(N3CCN(S(=O)(=O)c4ccc(C)c(C)c4)CC3)ccc2[N+](=O)[O-])n1" ?
15

What do you have for "c1ccc(-c2cn(CC3CCCCC3)nn2)cc1" ?
-1.74

###

Could you please report measured hERG current change (%, negative = inhibition) at 10uM for the items listed next?
# target.under.test: human ether-à-go-go-related gene (hERG) potassium channel (human);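 note: peak tail current of the secondary pulse compared with the same well before compound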
# test.description: primary screen, population patch clamp on CHO cells stably expressing hERG; higher = less effect of the substance
Hit rate of the full screen: of about 310,000 compounds, about 14,000 (4.5%) showed an effect of 50% or more. The effect is printed as a negative number. Many of the other results were omitted from the sample, so strong results are more common in it than they were.
Answer format: number, then unit.

// map "COc1cccc(C(=O)NCC(=O)N/N=C/c2cn[nH]c2-c2ccccc2)c1" to recorded hERG current change (%, negative = inhibition) at 10uM (system: human ether-à-go-go-related gene (hERG) potassium channel (human));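 note: peak tail current of the secondary pulse compared with the same well before compound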
-4.6%

What do you have for "Nc1ccccc1-c1nnc(SCc2ccccc2Cl)[nH]c1=O" ?
-0.313%

What do you have for O=C(CC1(c2ccc(Cl)cc2)C2CC3CC(C2)CC1C3)NCCO (stereo not drawn) ?
-7.17%

What do you have for "Cc1ccc(N(CC(=O)NCc2ccc(F)cc2)S(=O)(=O)c2c(C)nn(C)c2C)cc1" ?
-24.5%

What do you have for "CCCCn1c(CCNC(=O)CCC)nc2ccccc21" ?
-7.83%

What do you have for "CCCC(=O)NCCc1nc2ccccc2n1CCC" ?
1.27%

What do you have for "C/C(=N/NC(=O)c1cc(C(C)C)[nH]n1)c1cccs1" ?
7.16%

What do you have for "Nc1c(C(=O)Nc2ccccc2F)sc2nc(-c3cccnc3)ccc12" ?
20.9%

What do you have for "CCCCn1c(=O)c(C(=O)c2ccccc2)nc2ccccc21" ?
-30.4%

What do you have for "Cc1ccc(N(CC(=O)N2CCN(c3ccc(F)cc3)CC2)S(=O)(=O)c2c(C)noc2C)cc1" ?
-39.5%

What do you have for "CCCc1nc(SCC(N)=O)[nH]c(=O)c1CC" ?
7.34%

What do you have for "CCCn1c(=O)c(C(=O)c2ccccc2)nc2ccccc21" ?
-27.4%

What do you have for "CCCCn1c(CCCNC(=O)CC)nc2ccccc21" ?
-37.3%

What do you have for "CCOC(=O)N1CCN(C(=O)c2ccc(NS(=O)(=O)c3ccc(F)cc3)cc2)CC1" ?
-1.81%

What do you have for "Cc1ccc(NC(=O)O/N=C/c2cccc([N+](=O)[O-])c2)cc1" ?
-15.8%

What do you have for "CCCCn1c(CCNC(=O)CC)nc2ccccc21" ?
-11.2%

What do you have for "CCCCn1c(CCNC(=O)c2cccs2)nc2ccccc21" ?
-33.2%

What do you have for "COc1ccc(N(CC(=O)N2CCN(c3ccccc3F)CC2)S(=O)(=O)c2c(C)n[nH]c2C)cc1" ?
-20.6%

What do you have for "CCCn1c(CCNC(=O)c2cccs2)nc2ccccc21" ?
-36.1%

What do you have for "COc1ccc(/C=N/OC(=O)Nc2ccccc2)cc1[N+](=O)[O-]" ?
-58.4%

What do you have for "Cn1c(C(=O)N2CCN(c3ccc(Cl)cc3)CC2)cc2c(=O)[nH]c3ccccc3c21" ?
-114%
